B1: BTBD1 (parent)
chain: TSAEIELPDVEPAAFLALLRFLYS

- Variants of: B1
- MEASUREMENT DESCRIPTION: protein stability index of a GFP-peptide fusion (GPS, HEK-293T) (PSI 1-6); higher = more stable;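 further: lentivirally expressed fusions sorted by FACS into six bins by GFP to DsRed ratio, PSI derived from sequencing read proportions per bin multiplied by bin number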
- CONDITIONS: c terminus: a fixed tail appended
OBSERVABLE: protein stability index
Returns: the value as a bare number; no unit string appended.

Solved cases (4 shown):
[
  {
    "MUTATION KEY": "L22M",
    "protein stability index": 2.23
  },
  {
    "MUTATION KEY": "A14W",
    "protein stability index": 2.2
  },
  {
    "MUTATION KEY": "V10E",
    "protein stability index": 2.35
  },
  {
    "MUTATION KEY": "R20L",
    "protein stability index": 3.18
  }
]

Form field: reported protein stability index of L19Y
2.49

Form field: reported protein stability index of P8H
1.63

Form field: reported protein stability index of L22K
1.91

Form field: reported protein stability index of R20Y
2.09

Form field: reported protein stability index of Y23E
1.9

Form field: reported protein stability index of S24T
1.97
